Entries and their abundance fitness
B1: Myocardin, residues 363 to 406; numbered along this chain, Q8IZQ8 (parent)
chain: KPGPLPPNLDDLKVSELRQQLRIRGLPVSGTKTALMDRLRPFQD

Variants of: B1
Experiment: abundance fitness (aPCA) (normalised: wild type 0, dead -1); higher = more abundant; growth selection in yeast, the domain comes from the species named
Settings: Homo sapiens

- Mutations: "P2H"
  abundance fitness: -0.093
- Mutations: "R40L"
  abundance fitness: -0.284
- Mutations: "S29N"
  abundance fitness: -0.264
- Mutations: "L12Y"
  abundance fitness: 0.298
- Mutations: "P27G"
  abundance fitness: -0.41

Problem: Fill in reported abundance fitness for this entry: P4A
Result: 0.069

Problem: Fill in reported abundance fitness for this entry: L39M
Result: -0.409
